TARGET_OR_SYSTEM: Tyrosyl-tRNA synthetase, putative (Trypanosoma cruzi (strain CL Brener)) (UniProt Q4DSP6)
Sequence (whole entry): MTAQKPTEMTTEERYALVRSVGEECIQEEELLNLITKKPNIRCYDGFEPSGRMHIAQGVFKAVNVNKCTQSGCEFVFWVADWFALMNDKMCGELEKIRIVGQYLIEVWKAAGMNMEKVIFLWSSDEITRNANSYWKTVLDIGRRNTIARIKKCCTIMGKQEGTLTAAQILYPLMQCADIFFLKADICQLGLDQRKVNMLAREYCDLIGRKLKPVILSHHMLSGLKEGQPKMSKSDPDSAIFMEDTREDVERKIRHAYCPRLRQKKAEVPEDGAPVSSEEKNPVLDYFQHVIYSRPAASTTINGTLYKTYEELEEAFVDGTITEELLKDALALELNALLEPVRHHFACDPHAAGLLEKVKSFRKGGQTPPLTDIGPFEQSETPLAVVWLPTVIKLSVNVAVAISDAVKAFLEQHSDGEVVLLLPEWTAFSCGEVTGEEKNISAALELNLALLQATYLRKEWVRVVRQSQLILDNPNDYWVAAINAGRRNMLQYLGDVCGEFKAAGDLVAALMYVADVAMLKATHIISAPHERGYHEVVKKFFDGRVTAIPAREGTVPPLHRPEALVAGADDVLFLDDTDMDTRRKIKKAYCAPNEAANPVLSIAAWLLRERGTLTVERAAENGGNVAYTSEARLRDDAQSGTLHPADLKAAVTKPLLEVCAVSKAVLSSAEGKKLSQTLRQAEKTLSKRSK
ASSAY: Trypanosoma cruzi tyrosyl tRNA synthetase (TcYRS) SOP
Assay type: functional
Design: scale not given: direction of the effect not stated beside the values
TEST_PARAMETERS: 30 µM
Collected Percent Effect values appear next to each entry.
The figure you give is taken to be in %; do not add the unit.

Worked cases, answers included:
INSERT INTO assay_data (compound, units, reading) VALUES
  ('CCc1nccn1C1CCCN(C(=O)c2csc(COC)n2)C1 (stereo unspecified)', '%', 9.41),
  ('CCN(Cc1cccc2c1OCO2)C(=O)Nc1ccncc1', '%', 0),
  ('CCCc1cc(C(=O)N2CCCC(n3ccnc3C)C2)[nH]n1 (stereo unspecified)', '%', 11.4),
  ('Cc1cnn(CC2CN(CC(=O)NCCc3cccs3)CCO2)c1 (stereo unspecified)', '%', -2.56),
  ('Cc1cccc(CNCc2c(C)nn(C)c2N2CCOCC2)n1', '%', 15);

Switching to the query record.
Query for Tyrosyl-tRNA synthetase, putative (Trypanosoma cruzi (strain CL Brener)) (UniProt Q4DSP6): what Percent Effect does the record show for Cc1cc(-c2nn(C)c(Cl)c2CN2CCOCC2CC(=O)O)no1 (stereo unspecified) ?
12.2
